Assay Protocol: ATG_ISRE_CIS: Attagene CIS-FACTORIAL HepG2 Assay for human Interferon Regulatory Factor 1 (IRF1) binding to an Interferon-Stimulated Response Element (ISRE) (AID 2282948)
Measurement Parameters: HepG2 ISRE cis-reporter (Attagene), mRNA transcription readout; actives raise or lower the signal
Calls of active or inactive are those of the source. Rule for the calls: active = hit-call score of the fitted dose curve at least 0.9, where 1 is the maximum; inactive = score below 0.9.
Reported Metric: AC50

Solved cases below.
1) CCCC(=O)OCC; inactive
2) COc1ccc(-n2nc(C(F)F)cc2-c2ccc(S(C)=O)cc2)cc1 (stereo not drawn); inactive
3) Clc1nc(Cl)c(Cl)c(Cl)c1Cl; inactive
4) CC(C)=CCCC(C)=CC=O; inactive
5) COC(=O)c1c(Cl)c(Cl)c(C(=O)OC)c(Cl)c1Cl; inactive

Record AC50 per entry; entries follow.
1. CCCCCCc1ccc(O)cc1O
2. O=c1[nH]c2ccc(S(=O)CCN3CCC(Cc4ccc(F)cc4)CC3)cc2o1 (stereo not drawn)
3. CCNc1ccccc1
4. Cn1c(=O)cc(Oc2ccc(F)cc2F)c2cnc(NCC(C)(C)O)nc21
5. CCn1nc(Cc2ccccc2)cc1C1CCN(C[C@H]2C[C@H](N(C)[C@@H](C(=O)O)C(C)C)C[C@@H]2c2cccc(F)c2)CC1
6. O=C(NS(=O)(=O)/C=C/c1ccccc1)c1ccc(F)cc1Cl
7. CNCc1ccc(NC(=O)c2c[nH]c3c2C(=O)CCC3)cc1
8. COCCOCCOCCOC

-- reply
1. 55.7 µM (active)
2. inactive
3. inactive
4. inactive
5. 100 µM (active)
6. inactive
7. 71.1 µM (active)
8. inactive

---

Read-out: Cyclin D1 (CCND1), CCND1 (gene 595)
Assay Protocol: LTEA_HepaRG_CCND1: Life Technologies and Expression Analysis (LTEA) Assay for Cyclin D1 (CCND1) using HepaRG (AID 2283451)
Measurement Parameters: mRNA level, 48 h; actives raise or lower the signal
Calls of active or inactive are those of the source. How the source made its calls: active means hit-call score of the fitted dose curve at least 0.9, where 1 is the maximum; inactive means score below 0.9.
Give your call using only these classes: t (active), f (inactive)

Sample answers from the record:
1) CC1(C)C(=O)N(Br)C(=O)N1Br; f
2) O=C(OC[C@H]1O[C@@H](OC(=O)c2cc(O)c(O)c(OC(=O)c3cc(O)c(O)c(O)c3)c2)[C@H](OC(=O)c2cc(O)c(O)c(OC(=O)c3cc(O)c(O)c(O)c3)c2)[C@@H](OC(=O)c2cc(O)c(O)c(OC(=O)c3cc(O)c(O)c(O)c3)c2)[C@@H]1OC(=O)c1cc(O)c(O)c(OC(=O)c2cc(O)c(O)c(O)c2)c1)c1cc(O)c(O)c(OC(=O)c2cc(O)c(O)c(O)c2)c1; f
3) COCCOc1cc2cc(C(=O)NC3CCN(C(C)C)CC3)n(CC(=O)Nc3ccc(Cl)cn3)c2cn1; t
4) CCOC(=O)CC(CC(=O)OCC)(OC(C)=O)C(=O)OCC; f
5) CCCCC(CC)COC(=O)c1ccc(C(=O)OCC(CC)CCCC)cc1 (centres undefined); f

-- ask Called result for `Clc1nc(Cl)c(Cl)c(Cl)c1Cl`
-- reply f

-- ask Called result for CC(C)=CCCC(C)CCO (centres undefined)
-- reply f

-- ask Called result for `O=C(O)c1cccc(Oc2ccccc2)c1`
-- reply f

-- ask Called result for `CCCCCCCCCCCCc1ccccc1`
-- reply f
